Species: Bos taurus
Test: Displacement of [3H]CGS 21680 from bovine striatal membrane adenosine A2A receptor at 20 uM
Listed below: Activity values for each entry.
Write the number in % without appending the unit.

- smiles code: "O=c1[nH]c2ncccc2n2c(=O)n(-c3ccc(O)cc3)nc12"
  observable: "Activity"
  readout units: "%"
  reported result: 0
- smiles code: "COc1ccc(-n2nc3c(=O)[nH]c4ncccc4n3c2=O)cc1"
  observable: "Activity"
  readout units: "%"
  reported result: 0
- smiles code: "CCOC(=O)c1ccc(-n2nc3c(N)nc4ncccc4n3c2=O)cc1"
  observable: "Activity"
  readout units: "%"
  reported result: 17
- smiles code: "COc1ccc(-n2nc3c(NC(C)=O)nc4ncccc4n3c2=O)cc1"
  observable: "Activity"
  readout units: "%"
  reported result: 19
- smiles code: "O=C(O)c1ccc(-n2nc3c(=O)[nH]c4ncccc4n3c2=O)cc1"
  observable: "Activity"
  readout units: "%"
  reported result: 7
- smiles code: "COc1ccc(-n2nc3c(NC(=O)c4ccccc4)nc4ncccc4n3c2=O)cc1"
  observable: "Activity"
  readout units: "%"
  reported result: 7
- smiles code: "O=C(c1ccccc1)N(C(=O)c1ccccc1)c1nc2ncccc2n2c(=O)n(-c3ccccc3)nc12"
  observable: "Activity"
  readout units: "%"
  reported result: 12
- smiles code: "CCOC(=O)c1ccc(-n2nc3c(=O)[nH]c4ncccc4n3c2=O)cc1"
  observable: "Activity"
  readout units: "%"
  reported result: 0

Incoming: Note Activity for the molecule shown: O=c1[nH]c2ncccc2n2c(=O)n(-c3ccc(F)cc3)nc12
Outgoing: 26

Incoming: Note Activity for the molecule shown: O=c1[nH]c2ncccc2n2c(=O)n(-c3ccccc3)nc12
Outgoing: 12

Incoming: Note Activity for the molecule shown: COc1ccc(-n2nc3c(N(C(=O)c4ccccc4)C(=O)c4ccccc4)nc4ncccc4n3c2=O)cc1
Outgoing: 0

Incoming: Note Activity for the molecule shown: CC(=O)Nc1nc2ncccc2n2c(=O)n(-c3ccccc3)nc12
Outgoing: 59

* * *

Molecular target: Adenosine receptor A3 (Homo sapiens)
Sequence (P0DMS8 whole entry): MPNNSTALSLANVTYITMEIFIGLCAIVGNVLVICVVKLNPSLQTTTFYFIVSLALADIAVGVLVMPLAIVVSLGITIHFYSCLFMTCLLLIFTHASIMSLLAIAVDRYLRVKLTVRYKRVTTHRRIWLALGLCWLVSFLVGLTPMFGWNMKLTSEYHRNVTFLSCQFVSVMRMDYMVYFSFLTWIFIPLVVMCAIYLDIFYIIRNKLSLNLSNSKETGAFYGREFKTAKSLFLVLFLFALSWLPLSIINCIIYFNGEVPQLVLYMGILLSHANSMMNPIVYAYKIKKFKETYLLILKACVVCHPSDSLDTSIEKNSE
Test: Displacement of [125I]AB-MECA from human cloned adenosine A3 receptor expressed in CHO cells at 1 uM
Format: cell-based
observable: Activity (%)
Write the number in % without appending the unit.

Some solved cases for reference:
- smiles code: "O=c1[nH]c2c([N+](=O)[O-])cccc2n2c(=O)n(-c3ccc(O)cc3)nc12"
  observable: "Activity"
  readout units: "%"
  reported result: 21
- smiles code: "Nc1nc2c([N+](=O)[O-])cccc2n2c(=O)n(-c3ccc(O)cc3)nc12"
  observable: "Activity"
  readout units: "%"
  reported result: 45
- smiles code: "CCOC(=O)c1ccc(-n2nc3c(=O)[nH]c4ncccc4n3c2=O)cc1"
  observable: "Activity"
  readout units: "%"
  reported result: 0
- smiles code: "CC(=O)Nc1nc2c([N+](=O)[O-])cccc2n2c(=O)n(-c3ccccc3)nc12"
  observable: "Activity"
  readout units: "%"
  reported result: 18

Now let's try a different one.
Incoming: Note Activity for the molecule shown: O=c1[nH]c2ncccc2n2c(=O)n(-c3ccc(O)cc3)nc12
Outgoing: 32

* * *

Biological target: Adenosine receptor A1 (Homo sapiens, UniProt P30542)
Sequence (P30542 whole entry): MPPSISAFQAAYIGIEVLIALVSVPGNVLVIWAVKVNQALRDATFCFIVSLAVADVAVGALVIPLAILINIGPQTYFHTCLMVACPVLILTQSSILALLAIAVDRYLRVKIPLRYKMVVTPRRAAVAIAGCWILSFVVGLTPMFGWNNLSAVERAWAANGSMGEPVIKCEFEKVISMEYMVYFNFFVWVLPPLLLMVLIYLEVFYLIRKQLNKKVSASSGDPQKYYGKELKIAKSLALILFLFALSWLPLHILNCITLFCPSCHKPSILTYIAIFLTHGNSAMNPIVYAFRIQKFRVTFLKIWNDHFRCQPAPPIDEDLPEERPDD
Test: Displacement of [3H]DPCPX from human cloned adenosine A1 receptor expressed in CHO cells
Assay type: cell-based
observable: pKi
Keep in mind that pKi stands for -log10 of concentration in molar terms.

Incoming: Give pKi only, for COc1ccc(-n2nc3c(=O)[nH]c4ncccc4n3c2=O)cc1 , using Adenosine receptor A1 (Homo sapiens, UniProt P30542) data.
Outgoing: 6.94

* * *

Target: Adenosine receptor A1 (Bos taurus) (UniProt P28190)
Sequence (P28190 whole entry): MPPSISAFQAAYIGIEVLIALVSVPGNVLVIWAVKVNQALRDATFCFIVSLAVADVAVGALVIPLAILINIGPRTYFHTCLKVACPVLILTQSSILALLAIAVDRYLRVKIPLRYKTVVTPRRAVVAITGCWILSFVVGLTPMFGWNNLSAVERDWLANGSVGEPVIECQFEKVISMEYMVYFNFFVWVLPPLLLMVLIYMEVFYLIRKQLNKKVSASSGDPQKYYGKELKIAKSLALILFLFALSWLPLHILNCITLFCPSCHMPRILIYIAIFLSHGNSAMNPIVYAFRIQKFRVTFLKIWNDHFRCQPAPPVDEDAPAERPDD
Assay: Displacement of [3H]DPCPX from bovine brain cortical membrane adenosine A1 receptor at 20 uM
Listed below: Activity values for each entry.
Answer by giving the amount and then stating its unit.

Some solved cases for reference:
- smiles code: "COc1ccc(-n2nc3c(NC(C)=O)nc4ncccc4n3c2=O)cc1"
  Activity: "56%"
- smiles code: "CCOC(=O)c1ccc(-n2nc3c(=O)[nH]c4ncccc4n3c2=O)cc1"
  Activity: "16%"
- smiles code: "O=C(O)c1ccc(-n2nc3c(=O)[nH]c4ncccc4n3c2=O)cc1"
  Activity: "30%"
- smiles code: "COc1ccc(-n2nc3c(N(C(=O)c4ccccc4)C(=O)c4ccccc4)nc4ncccc4n3c2=O)cc1"
  Activity: "17%"
- smiles code: "COc1ccc(-n2nc3c(=O)[nH]c4ncccc4n3c2=O)cc1"
  Activity: "26%"

Now let's try a different one.
Incoming: Note Activity for the compound shown: CCOC(=O)c1ccc(-n2nc3c(N)nc4ncccc4n3c2=O)cc1
Outgoing: 39%

* * *

Molecular target: Adenosine receptor A3 (Homo sapiens)
Test: Displacement of [125I]AB-MECA from human cloned adenosine A3 receptor expressed in CHO cells at 1 uM
Format: cell-based
Listed below: Activity values for each entry.
Write the number in % without appending the unit.

- smiles code: "CCOC(=O)c1ccc(-n2nc3c(N)nc4ncccc4n3c2=O)cc1"
  readout units: "%"
  reported result: 0
- smiles code: "O=C(c1ccccc1)N(C(=O)c1ccccc1)c1nc2c([N+](=O)[O-])cccc2n2c(=O)n(-c3ccccc3)nc12"
  readout units: "%"
  reported result: 27
- smiles code: "COc1ccc(-n2nc3c(NC(C)=O)nc4c([N+](=O)[O-])cccc4n3c2=O)cc1"
  readout units: "%"
  reported result: 36

Now let's try a different one.
Incoming: Note Activity for the compound shown: O=C(O)c1ccc(-n2nc3c(=O)[nH]c4ncccc4n3c2=O)cc1
Outgoing: 0

* * *

Biological target: Adenosine receptor A3 (Homo sapiens)
Assay: Antagonist activity at human adenosine A3 receptor expressed in CHO cells assessed as blockade of NECA-mediated inhibition of forskolin-stimulated cAMP accumulation
observable: EC50 (nM)
Write the number in nM without appending the unit.

Incoming: Give EC50 only, for COc1ccc(-n2nc3c(NC(=O)c4ccccc4)nc4ncccc4n3c2=O)cc1 , using Adenosine receptor A3 (Homo sapiens) data.
Outgoing: 36.3

* * *

Listed below: Ki values for each entry.
Biological target: Adenosine receptor A2a (Homo sapiens, UniProt P29274)
Sequence (P29274 whole entry): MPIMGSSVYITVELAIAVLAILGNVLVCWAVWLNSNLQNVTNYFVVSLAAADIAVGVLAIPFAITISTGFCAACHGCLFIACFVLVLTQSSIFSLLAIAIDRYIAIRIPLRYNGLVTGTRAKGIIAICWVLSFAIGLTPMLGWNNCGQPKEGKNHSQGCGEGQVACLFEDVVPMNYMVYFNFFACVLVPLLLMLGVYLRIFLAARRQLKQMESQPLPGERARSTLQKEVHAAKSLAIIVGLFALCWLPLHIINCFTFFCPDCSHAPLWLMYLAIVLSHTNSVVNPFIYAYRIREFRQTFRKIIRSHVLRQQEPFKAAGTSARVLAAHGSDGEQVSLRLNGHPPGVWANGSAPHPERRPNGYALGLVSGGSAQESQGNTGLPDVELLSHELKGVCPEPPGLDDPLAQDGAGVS
Write the number in nM without appending the unit.

- smiles code: "O=c1n(-c2ccccc2)nc2c(NC3CCCCC3)nc3ncccc3n12"
  Ki, nM: 211

Incoming: Note Ki for the compound shown: O=C(Cc1ccccc1)Nc1nc2ncccc2n2c(=O)n(-c3ccccc3)nc12
Outgoing: 208

* * *

Molecular target: Adenosine receptor A1 (Rattus norvegicus, UniProt P25099)
Sequence (P25099 whole entry): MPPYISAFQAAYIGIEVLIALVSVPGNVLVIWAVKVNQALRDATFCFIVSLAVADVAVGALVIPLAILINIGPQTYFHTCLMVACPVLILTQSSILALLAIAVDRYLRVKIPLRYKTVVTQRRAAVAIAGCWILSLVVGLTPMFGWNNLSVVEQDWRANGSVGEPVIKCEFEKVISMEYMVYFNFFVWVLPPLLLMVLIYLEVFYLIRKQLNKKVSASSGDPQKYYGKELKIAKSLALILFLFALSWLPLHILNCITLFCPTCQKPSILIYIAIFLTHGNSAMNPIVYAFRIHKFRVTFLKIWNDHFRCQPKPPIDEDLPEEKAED
observable: pKi
Keep in mind that pKi stands for -log10 of concentration in molar terms.

Incoming: Note pKi for the molecule shown: COc1ccc(-n2nc3c(NC(=O)c4ccccc4)nc4ncccc4n3c2=O)cc1
Outgoing: 6.23

* * *

Molecular target: UniProt P28190
Listed below: pKi values for each entry.
Keep in mind that pKi stands for -log10 of concentration in molar terms.

- smiles code: "O=c1[nH]c2ncccc2n2c(=O)n(-c3ccc(O)cc3)nc12"
  pKi: 6.35

Incoming: Note pKi for the molecule shown: CC(=O)Nc1nc2ncccc2n2c(=O)n(-c3ccccc3)nc12
Outgoing: 7.85

Incoming: Note pKi for the molecule shown: O=c1[nH]c2ncccc2n2c(=O)n(-c3ccc(F)cc3)nc12
Outgoing: 6.51

Incoming: Note pKi for the molecule shown: Nc1nc2ncccc2n2c(=O)n(-c3ccc(O)cc3)nc12
Outgoing: 6.95

Incoming: Note pKi for the molecule shown: O=c1n(-c2ccccc2)nc2c(NC3CCCCC3)nc3ncccc3n12
Outgoing: 9.42

Incoming: Note pKi for the molecule shown: O=c1[nH]c2ncccc2n2c(=O)n(-c3ccccc3)nc12
Outgoing: 6.84

Incoming: Note pKi for the molecule shown: COc1ccc(-n2nc3c(N)nc4ncccc4n3c2=O)cc1
Outgoing: 5.96

Incoming: Note pKi for the molecule shown: O=C(c1ccccc1)N(C(=O)c1ccccc1)c1nc2ncccc2n2c(=O)n(-c3ccccc3)nc12
Outgoing: 7.15

* * *

Target: Adenosine receptor A2a (Homo sapiens)
Test: Displacement of [3H]NECA from human cloned adenosine A2A receptor expressed in CHO cells at 10 uM
Format: cell-based
observable: Activity (%)
Write the number in % without appending the unit.

Some solved cases for reference:
- smiles code: "O=c1[nH]c2ncccc2n2c(=O)n(-c3ccccc3)nc12"
  system: "Adenosine receptor A2a (Homo sapiens)"
  Activity [%]: 0
- smiles code: "COc1ccc(-n2nc3c(NC(C)=O)nc4ncccc4n3c2=O)cc1"
  system: "Adenosine receptor A2a (Homo sapiens)"
  Activity [%]: 29
- smiles code: "COc1ccc(-n2nc3c(NC(=O)c4ccccc4)nc4ncccc4n3c2=O)cc1"
  system: "Adenosine receptor A2a (Homo sapiens)"
  Activity [%]: 27

Incoming: Note Activity for the molecule shown: COc1ccc(-n2nc3c(N(C(=O)c4ccccc4)C(=O)c4ccccc4)nc4ncccc4n3c2=O)cc1
Outgoing: 0
